Taken from ChEMBL document CHEMBL6121002.

- Test system: Rattus norvegicus
- Assay procedure: Antialzheimer activity in AlCl3-induced learning and memory impairment in Sprague-Dawley rat assessed as spontaneous alternation at 30 mg/kg, po measured after 5 weeks by Y-maze test (reference value: 50 +/- 2.89 %)
- Assay type: functional
Overview of recorded Activity for various molecules
Dear colleague, please return just the value in %, with no unit written.

COc1ccc(N2C(=O)c3c(sc4c3CCCCC4)OC2c2ccc(Cl)cc2)cc1 (centres undefined) ... 85

Consider the molecule shown here: COc1cc2c(cc1OC)C(=O)C(CC1CCN(Cc3ccccc3)CC1)C2 (centres undefined) [DONEPEZIL] What is its recorded Activity?
85

Also O=C1c2c(sc3c2CCCCC3)OC(c2ccccc2)N1c1ccccc1 (centres undefined) ?
80

Now give it for COc1ccc(N2C(=O)c3c(sc4c3CCCCC4)OC2c2ccccc2)cc1 (centres undefined) too.
74.33

How about this molecule: O=C1c2c(sc3c2CCCCC3)OC(c2ccccc2)N1c1ccc(Cl)cc1 (centres undefined)
71.5

Moving on to the next molecule: CCOC(=O)c1c(OC(=O)c2ccc(Cl)cc2)sc2c1CCCCC2
70.67

How about CCOC(=O)c1c(OC(=O)c2ccccc2)sc2c1CCCCC2 ?
63.5

Same again, this time with O=C1c2c(sc3c2CCCCC3)OC(c2ccc(Cl)cc2)N1c1ccc(Cl)cc1 (centres undefined)
83.33

And for O=C1c2c(sc3c2CCCCC3)OC(c2ccc(Cl)cc2)N1c1ccccc1 (centres undefined) ?
73.83

###

- Assay procedure: Selectivity index, ratio of IC50 for BChE (unknown origin) using butyrylthiocholine iodide as substrate to IC50 for AChE (unknown origin)
Label satisfied when Ratio IC50 is strictly below 3; otherwise label not satisfied.

COc1ccc(N2C(=O)c3c(sc4c3CCCCC4)OC2c2ccccc2)cc1 (stereo not drawn) ... satisfied
O=C1c2c(sc3c2CCCCC3)OC(c2ccccc2)N1c1ccccc1 (stereo not drawn) ... not satisfied
CCOC(=O)c1c(OC(=O)c2ccc(Cl)cc2)sc2c1CCCCC2 ... satisfied

Please determine if O=C1c2c(sc3c2CCCCC3)OC(c2ccc(Cl)cc2)N1c1ccc(Cl)cc1 (stereo not drawn) is below 3 in terms of Ratio IC50.
not satisfied

Entry to check: CCOC(=O)c1c(OC(=O)c2ccccc2)sc2c1CCCCC2
not satisfied

Also check O=C1c2c(sc3c2CCCCC3)OC(c2ccc(Cl)cc2)N1c1ccccc1 (stereo not drawn)
not satisfied

Same for COc1ccc(N2C(=O)c3c(sc4c3CCCCC4)OC2c2ccc(Cl)cc2)cc1 (stereo not drawn)
satisfied

For O=C1c2c(sc3c2CCCCC3)OC(c2ccccc2)N1c1ccc(Cl)cc1 (stereo not drawn) then?
satisfied

###

Parameter fold change (FC): see the listing below.
- System: Rattus norvegicus
- Assay procedure: Antialzheimer activity in AlCl3-induced learning and memory impairment in Sprague-Dawley rat assessed as fold increase in dopamine level in brain tissue at 30 mg/kg, po measured after 5 weeks by fluorometric analysis relative to control
- Format: functional
The reply should be a number, written without any unit.

Examples from the recorded data:
O=C1c2c(sc3c2CCCCC3)OC(c2ccccc2)N1c1ccccc1 (stereo not drawn) ... 3.8
COc1ccc(N2C(=O)c3c(sc4c3CCCCC4)OC2c2ccccc2)cc1 (stereo not drawn) ... 3.5
O=C1c2c(sc3c2CCCCC3)OC(c2ccccc2)N1c1ccc(Cl)cc1 (stereo not drawn) ... 1.7
O=C1c2c(sc3c2CCCCC3)OC(c2ccc(Cl)cc2)N1c1ccccc1 (stereo not drawn) ... 1.7
CCOC(=O)c1c(OC(=O)c2ccccc2)sc2c1CCCCC2 ... 1.7
COc1ccc(N2C(=O)c3c(sc4c3CCCCC4)OC2c2ccc(Cl)cc2)cc1 (stereo not drawn) ... 3.8
CCOC(=O)c1c(OC(=O)c2ccc(Cl)cc2)sc2c1CCCCC2 ... 1.7

Consider now this further compound.
Please give the measured fold change (FC) for this compound: O=C1c2c(sc3c2CCCCC3)OC(c2ccc(Cl)cc2)N1c1ccc(Cl)cc1 (stereo not drawn)
4.2
